- System: MCF7 (human breast cancer) cell line
- experiment-description: MTT cytotoxicity assay, MCF7
- Type: cell-based
- particulars: MCF7, 24 h
pIC50: −log10 of the molar value.
measurement-type: pIC50

[
  {
    "molecule": "O=[N+]([O-])c1ccc(Nc2nc(N3CCCCC3)nc(N3CCCCC3)n2)cc1",
    "measurement-target": "MCF7 (human breast cancer) cell line",
    "measurement-type": "pIC50",
    "meas-value": 4.58
  },
  {
    "molecule": "O=[N+]([O-])c1ccc(Nc2nc(Cl)nc(Cl)n2)cc1",
    "measurement-target": "MCF7 (human breast cancer) cell line",
    "measurement-type": "pIC50",
    "meas-value": 4.99
  },
  {
    "molecule": "Fc1ccc(Nc2nc(Cl)nc(Cl)n2)cc1",
    "measurement-target": "MCF7 (human breast cancer) cell line",
    "measurement-type": "pIC50",
    "meas-value": 5.10
  },
  {
    "molecule": "COc1ccc(Nc2nc(N3CCOCC3)nc(N3CCOCC3)n2)cc1",
    "measurement-target": "MCF7 (human breast cancer) cell line",
    "measurement-type": "pIC50",
    "meas-value": 4.36
  },
  {
    "molecule": "Clc1ccc(Nc2nc(Cl)nc(Cl)n2)cc1",
    "measurement-target": "MCF7 (human breast cancer) cell line",
    "measurement-type": "pIC50",
    "meas-value": 5.27
  },
  {
    "molecule": "COc1ccc(Nc2nc(Cl)nc(Cl)n2)cc1",
    "measurement-target": "MCF7 (human breast cancer) cell line",
    "measurement-type": "pIC50",
    "meas-value": 5.75
  },
  {
    "molecule": "Fc1ccc(Nc2nc(N3CCCCC3)nc(N3CCCCC3)n2)cc1",
    "measurement-target": "MCF7 (human breast cancer) cell line",
    "measurement-type": "pIC50",
    "meas-value": 4.48
  },
  {
    "molecule": "O=[N+]([O-])c1ccc(Nc2nc(N3CCOCC3)nc(N3CCOCC3)n2)cc1",
    "measurement-target": "MCF7 (human breast cancer) cell line",
    "measurement-type": "pIC50",
    "meas-value": 4.86
  },
  {
    "molecule": "COc1cccc2c1C(=O)c1c(O)c3c(c(O)c1C2=O)C[C@@](O)(C(=O)CO)C[C@@H]3O[C@H]1C[C@H](N)[C@H](O)[C@H](C)O1 [DOX, Doxorubicin, reference compound]",
    "measurement-target": "MCF7 (human breast cancer) cell line",
    "measurement-type": "pIC50",
    "meas-value": 4.98
  }
]

###

pIC50: recorded values
- Tested on: MCF7 (human breast cancer) cell line
- experiment-description: MTT cytotoxicity assay, MCF7
- Assay type: cell-based
- particulars: MCF7, 24 h
pIC50: −log10 of the molar value.
measurement-type: pIC50

[
  {
    "compound": "Fc1ccc(Nc2nc(N3CCOCC3)nc(N3CCOCC3)n2)cc1 [3b]",
    "measurement-type": "pIC50",
    "meas-value": 5.21
  },
  {
    "compound": "Clc1ccc(Nc2nc(N3CCCCC3)nc(N3CCCCC3)n2)cc1 [2a]",
    "measurement-type": "pIC50",
    "meas-value": 4.63
  },
  {
    "compound": "Cc1ccc(Nc2nc(N3CCOCC3)nc(N3CCOCC3)n2)cc1 [3d]",
    "measurement-type": "pIC50",
    "meas-value": 4.65
  },
  {
    "compound": "Cc1ccc(Nc2nc(N3CCCCC3)nc(N3CCCCC3)n2)cc1 [2d]",
    "measurement-type": "pIC50",
    "meas-value": 5.18
  },
  {
    "compound": "COc1ccc(Nc2nc(N3CCCCC3)nc(N3CCCCC3)n2)cc1 [2c]",
    "measurement-type": "pIC50",
    "meas-value": 4.29
  },
  {
    "compound": "CC(=O)O[C@H]1C(=O)[C@@]2(C)[C@H]([C@H](OC(=O)c3ccccc3)[C@]3(O)C[C@H](OC(=O)[C@H](O)[C@@H](NC(=O)c4ccccc4)c4ccccc4)C(C)=C1C3(C)C)[C@]1(OC(C)=O)CO[C@@H]1C[C@@H]2O [PTX, Paclitaxel, reference compound]",
    "measurement-type": "pIC50",
    "meas-value": 5.63
  },
  {
    "compound": "Cc1ccc(Nc2nc(Cl)nc(Cl)n2)cc1 [1d]",
    "measurement-type": "pIC50",
    "meas-value": 6.70
  },
  {
    "compound": "Clc1ccc(Nc2nc(N3CCOCC3)nc(N3CCOCC3)n2)cc1 [3a]",
    "measurement-type": "pIC50",
    "meas-value": 4.37
  }
]
